# tgt: HLA-A*68:02
# test-protocol: IEDB peptide-MHC binding, purified MHC/competitive/radioactivity; bounds were set here for any values at or beyond the usual limits of such assays
# condition-details: source organism: Vaccinia virus WR
measured-endpoint: IC50 (nM)

AIFNNRNLAA    2860
GLYIPGTSV    904
IAVSVYGAIT    4380
CAVIPFDDI    23
IASGQRCHFI    4220
NIREGTHVLL    2530
RLPSETFPNV    91
SLCPTKKLV    1040
VQSVLRDISI    1290
SVDVDIYDA    345
IADIRDKYM    3110
IVAMLLTHGA    505
ILEYLYIMRV    1350
CIVAAVIIM    4440
TVQEFIFSAL    7.8
IVSKCIVQSV    50
LVKDESIQL    1470
FVYVSVMNFI    57
FTEGKINPLL    243
TVDFTDCRTI    348
NTDHPLSINV    0.67

---

As shown below, each of these sequences has a reported pIC50 value.
# tgt: HLA-A*02:01
# test-protocol: IEDB peptide-MHC binding, purified MHC/competitive/radioactivity; bounds were set here for any values at or beyond the usual limits of such assays
# condition-details: source organism: Vaccinia virus WR
pIC50: −log10 of the molar value.
measured-endpoint: pIC50

AIFNNRNLAA    5.88
KQDISLKRNA    6.11
GLDLENLYA    6.93
ILDNAAKYV    7.85
FISSFLLPLT    7.21
IIFFIVLILL    6.70
VQEFIFSAL    6.21
HLGYIIRYPV    7.92
ILSNYVKTL    6.50
TLVPVLEKKV    6.02
YVHGDTYSL    7.15
LLKCVSDSWL    5.81
AVNEEWLTAV    6.41
VLYNGVNYL    9.60
FTSDYPFYV    8.82
AAMYQYIFL    6.16
QAKTKNFTI    5.42
YITALNHLV    9.15
NIYLNFPWL    5.92
FTGITLFLL    6.89
NTSWNDTVT    6.84

---

# tgt: HLA-A*02:02
# test-protocol: IEDB peptide-MHC binding, cellular MHC/competitive/fluorescence; bounds were set here for any values at or beyond the usual limits of such assays
# condition-details: source organism: Vaccinia virus WR
pIC50: −log10 of the molar value.
As shown below, each of these sequences has a reported pIC50 value.
measured-endpoint: pIC50

PLPSLEYGA    4.94
QVKELGIAI    5.04
HVLLPFYET    4.79
PLKDVERLQM    5.21
DMLLNVQTL    5.13
EAKTHFSTT    4.44
FANVISKIYT    5.11
SMYTRLRQDT    5.18
NLCKYLRGHT    4.40
VQLPKRGVRV    4.47
KLVETGFVI    4.88
VQLSNNKYV    5.13
ITPNNLNKI    4.84
DTMRIYCSL    5.23
QMYRKFSRCT    4.59
AIKQYGDIDL    4.63
STKADAVVA    5.09
DINVIGLIVI    5.15
DLLLPSTDV    4.82
